tested on: 616215-338-R-J1-PDC complex spheroid viability; assay: Anticancer human tumor 616215-338-R-J1-PDC patient-derived colon adenocarcinoma cell line growth inhibition [POLQ]; details: second compound 10 µM; first compound 0.1 µM; stronger effect = lower value
experimental-endpoint: viability, T/C (%)

1) CCc1cc2c(N3CCc4c(cc(Cn5ccnc5)cc4-c4cn(C)nc4C(F)(F)F)C3=O)cc(C)nc2c(OC)n1 + Cc1cccc(N(C)C(=O)C2C(O)CCN2c2nc(C)cc(C(F)(F)F)c2C#N)c1; 92.3
2) CCCS(=O)(=O)Nc1ccc(F)c(C(=O)c2c[nH]c3ncc(-c4ccc(Cl)cc4)cc23)c1F + Cc1cccc(N(C)C(=O)C2C(O)CCN2c2nc(C)cc(C(F)(F)F)c2C#N)c1; 100
3) C#Cc1c(F)ccc2cc(O)cc(-c3ncc4c(N5CC6CCC(C5)N6)nc(OCC56CCCN5CC(F)C6)nc4c3F)c12 (stereo not drawn) + Nc1ccc(C#CCN(C(=O)Cc2ncc(C(F)(F)F)cc2C(F)(F)F)c2ccc(F)cc2)nn1; 86.2

###

tested on: 616215-338-R-J1-PDC complex spheroid viability; assay: Anticancer human tumor 616215-338-R-J1-PDC cell line growth inhibition [POLQ]; settings: second compound 0.1 µM; first compound 0.1 µM; stronger effect = lower value;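 further: spheroids exposed to compounds for one week before readout; percent viability relative to DMSO vehicle wells taken as 100%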
Label T when viability, T/C is strictly below 80%; otherwise label F.

1) CC1COCCN1c1cc(C2(S(C)(=N)=O)CC2)nc(-c2ccnc3[nH]ccc23)n1 (configuration not stated) + Cc1cccc(N(C)C(=O)C2C(O)CCN2c2nc(C)cc(C(F)(F)F)c2C#N)c1; F
2) COc1ccc([C@@H](O)c2cc(-c3ncnc4cc(N5CCOCC5)ccc34)c(F)cc2Cl)nn1 + Nc1ccc(C#CCN(C(=O)Cc2ncc(C(F)(F)F)cc2C(F)(F)F)c2ccc(F)cc2)nn1; F
3) O=c1[nH]cc(F)c(=O)[nH]1 + COC1C(OC(N)=O)C(O)C(Oc2ccc3c(O)c(NC(=O)c4ccc(O)c(CC=C(C)C)c4)c(=O)oc3c2C)OC1(C)C; F
4) CCc1c2c(nc3ccc(O)cc13)-c1cc3c(c(=O)n1C2)COC(=O)[C@]3(O)CC + COC1C(OC(N)=O)C(O)C(Oc2ccc3c(O)c(NC(=O)c4ccc(O)c(CC=C(C)C)c4)c(=O)oc3c2C)OC1(C)C; T
5) CCCS(=O)(=O)Nc1ccc(F)c(C(=O)c2c[nH]c3ncc(-c4ccc(Cl)cc4)cc23)c1F + Nc1ccc(C#CCN(C(=O)Cc2ncc(C(F)(F)F)cc2C(F)(F)F)c2ccc(F)cc2)nn1; F
6) CC(C)n1c(=O)n(C)c2cnc3cc(F)c(-c4ccc(OCCCN5CCCCC5)nc4)cc3c21 + COC1C(OC(N)=O)C(O)C(Oc2ccc3c(O)c(NC(=O)c4ccc(O)c(CC=C(C)C)c4)c(=O)oc3c2C)OC1(C)C; F
7) CCc1c2c(nc3ccc(O)cc13)-c1cc3c(c(=O)n1C2)COC(=O)[C@]3(O)CC + Cc1cccc(N(C)C(=O)C2C(O)CCN2c2nc(C)cc(C(F)(F)F)c2C#N)c1; T
8) CCc1cc2c(N3CCc4c(cc(Cn5ccnc5)cc4-c4cn(C)nc4C(F)(F)F)C3=O)cc(C)nc2c(OC)n1 + COC1C(OC(N)=O)C(O)C(Oc2ccc3c(O)c(NC(=O)c4ccc(O)c(CC=C(C)C)c4)c(=O)oc3c2C)OC1(C)C; F
9) Nc1ccn(C2OC(CO)C(O)C2(F)F)c(=O)n1 (configuration not stated) + Nc1ccc(C#CCN(C(=O)Cc2ncc(C(F)(F)F)cc2C(F)(F)F)c2ccc(F)cc2)nn1; T
10) COc1ccc([C@@H](O)c2cc(-c3ncnc4cc(N5CCOCC5)ccc34)c(F)cc2Cl)nn1 + COC1C(OC(N)=O)C(O)C(Oc2ccc3c(O)c(NC(=O)c4ccc(O)c(CC=C(C)C)c4)c(=O)oc3c2C)OC1(C)C; F
